assay: Extrapolated human dosimetry (OLINDA/EXM, ICRP-89 phantoms); settings: ICRP 89 Adult Male, extrapolated
Absorbed dose (AD average) Stomach Wall overview
Give just the number in mGy/Mbq; leave the unit off.

Use the examples below as a reference point.
compound="N#C[C@@H]1CC(F)(F)CN1C(=O)CNC(=O)c1ccnc2ccc(OCCCCNC(=O)CC[C@H](NC(=O)CCC(C(=O)O)N3CCN(CC(=O)[O-])CCN(CC(=O)[O-])CCN(CC(=O)[O-])CC3)C(=O)NCCCCOc3ccc4nccc(C(=O)NCC(=O)N5CC(F)(F)C[C@H]5C#N)c4c3)cc12.[177Lu+3] (stereo partly drawn) [[^177Lu]Lu-DOTAGA.Glu.(FAPI)2]" assay_value=3.05E-02
compound="N#C[C@@H]1CC(F)(F)CN1C(=O)CNC(=O)c1ccnc2ccc(OCCCCNC(=O)CC[C@H](NC(=O)CCC(C(=O)O)N3CCN(CC(=O)[O-])CCN(CC(=O)[O-])CCN(CC(=O)[O-])CC3)C(=O)NCCCCOc3ccc4nccc(C(=O)NCC(=O)N5CC(F)(F)C[C@H]5C#N)c4c3)cc12.[161Tb+3] (stereo partly drawn) [[^161Tb]Tb-DOTAGA.Glu.(FAPI)2]" assay_value=4.15E-02

Now, please, on to the next compound.
For the compound N#C[C@@H]1CC(F)(F)CN1C(=O)CNC(=O)c1ccnc2ccc(OCCCCNC(=O)CC[C@H](NC(=O)CN3CCN(CC(=O)[O-])CCN(CC(=O)[O-])CCN(CC(=O)[O-])CC3)C(=O)NCCCCOc3ccc4nccc(C(=O)NCC(=O)N5CC(F)(F)C[C@H]5C#N)c4c3)cc12.[161Tb+3] [[^161Tb]Tb-DO3A.Glu.(FAPI)2] , what Absorbed dose (AD average) Stomach Wall is on record?
2.84E-02

====

experiment: Extrapolated human dosimetry (OLINDA/EXM, ICRP-89 phantoms); details: ICRP 89 Adult Female, extrapolated
OUTCOME_MEASURE: Absorbed dose (AD average) Ovaries (mGy/Mbq)
Give just the number in mGy/Mbq; leave the unit off.

compound="N#C[C@@H]1CC(F)(F)CN1C(=O)CNC(=O)c1ccnc2ccc(OCCCCNC(=O)CC[C@H](NC(=O)CCC(C(=O)O)N3CCN(CC(=O)[O-])CCN(CC(=O)[O-])CCN(CC(=O)[O-])CC3)C(=O)NCCCCOc3ccc4nccc(C(=O)NCC(=O)N5CC(F)(F)C[C@H]5C#N)c4c3)cc12.[161Tb+3] (stereo partly shown) [[^161Tb]Tb-DOTAGA.Glu.(FAPI)2]" assay_value=4.17E-02

For the compound N#C[C@@H]1CC(F)(F)CN1C(=O)CNC(=O)c1ccnc2ccc(OCCCCNC(=O)CC[C@H](NC(=O)CN3CCN(CC(=O)[O-])CCN(CC(=O)[O-])CCN(CC(=O)[O-])CC3)C(=O)NCCCCOc3ccc4nccc(C(=O)NCC(=O)N5CC(F)(F)C[C@H]5C#N)c4c3)cc12.[161Tb+3] [[^161Tb]Tb-DO3A.Glu.(FAPI)2] , what Absorbed dose (AD average) Ovaries is on record?
3.75E-02

For the compound N#C[C@@H]1CC(F)(F)CN1C(=O)CNC(=O)c1ccnc2ccc(OCCCCNC(=O)CC[C@H](NC(=O)CN3CCN(CC(=O)[O-])CCN(CC(=O)[O-])CCN(CC(=O)[O-])CC3)C(=O)NCCCCOc3ccc4nccc(C(=O)NCC(=O)N5CC(F)(F)C[C@H]5C#N)c4c3)cc12.[177Lu+3] [[^177Lu]Lu-DO3A.Glu.(FAPI)2] , what Absorbed dose (AD average) Ovaries is on record?
2.76E-02

For the compound N#C[C@@H]1CC(F)(F)CN1C(=O)CNC(=O)c1ccnc2ccc(OCCCCNC(=O)CC[C@H](NC(=O)CCC(C(=O)O)N3CCN(CC(=O)[O-])CCN(CC(=O)[O-])CCN(CC(=O)[O-])CC3)C(=O)NCCCCOc3ccc4nccc(C(=O)NCC(=O)N5CC(F)(F)C[C@H]5C#N)c4c3)cc12.[177Lu+3] (stereo partly shown) [[^177Lu]Lu-DOTAGA.Glu.(FAPI)2] , what Absorbed dose (AD average) Ovaries is on record?
3.09E-02
